So I've got a bunch of compounds here, and I need their MIC values.
System: Staphylococcus aureus MS353
Procedure Summary: MIC, Staphylococcus aureus MS353
Format: cell-based
Assay Setup: Staphylococcus aureus MS353; read-out: MIC
Field format: number, assumed µg/mL, no unit text.

stdin: In one line, give reported MIC of the entry CCC1OC(=O)CC(O)C(C)C(OC2OC(C)C(O)C(N(C)C)C2O)C(CC=O)CC(C)C(=O)C=CC(C)=CC1COc1cccc([N+](=O)[O-])c1 (stereo not drawn) .
stdout: 0.1

stdin: In one line, give reported MIC of the entry CCC1OC(=O)CC(O)C(C)C(OC2OC(C)C(O)C(N(C)C)C2O)C(CC=O)CC(C)C(=O)C=CC(C)=CC1CSCCc1ccccc1 (stereo not drawn) .
stdout: 0.1

stdin: In one line, give reported MIC of the entry CCC1OC(=O)CC(O)C(C)C(OC2OC(C)C(O)C(N(C)C)C2O)C(CC=O)CC(C)C(=O)C=CC(C)=CC1CSC(C)c1ccccc1 (stereo not drawn) .
stdout: 0.2
